Biological target: human SGLT2 (Homo sapiens, UniProt P31639, I433V)
Sequence (P31639 1-672 I433V): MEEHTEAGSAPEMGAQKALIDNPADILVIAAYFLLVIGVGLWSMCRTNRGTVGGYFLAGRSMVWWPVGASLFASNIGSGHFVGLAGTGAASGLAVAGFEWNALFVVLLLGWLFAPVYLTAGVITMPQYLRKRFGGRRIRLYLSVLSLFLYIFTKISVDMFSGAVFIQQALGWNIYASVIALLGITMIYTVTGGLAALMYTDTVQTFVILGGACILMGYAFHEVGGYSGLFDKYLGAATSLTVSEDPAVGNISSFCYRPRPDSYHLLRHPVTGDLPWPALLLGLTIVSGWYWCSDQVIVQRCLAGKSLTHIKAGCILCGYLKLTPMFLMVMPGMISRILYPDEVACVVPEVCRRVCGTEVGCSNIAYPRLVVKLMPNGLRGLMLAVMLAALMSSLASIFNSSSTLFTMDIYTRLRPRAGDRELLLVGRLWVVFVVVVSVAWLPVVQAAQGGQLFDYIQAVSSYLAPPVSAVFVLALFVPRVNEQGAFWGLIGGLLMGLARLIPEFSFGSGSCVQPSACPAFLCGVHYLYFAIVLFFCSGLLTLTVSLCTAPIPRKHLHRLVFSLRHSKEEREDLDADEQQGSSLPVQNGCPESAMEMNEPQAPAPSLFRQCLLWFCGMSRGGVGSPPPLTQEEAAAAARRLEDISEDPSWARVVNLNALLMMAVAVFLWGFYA
Test: Assay for inhibitory effect on human SGLT2 activity (uptake of methyl-α-D-glucopyranoside)
Settings: inhibition of methyl-α-D-(U-14C)glucopyranoside uptake, COS-7 cells expressing transiently human SGLT2, 37° C., 2 hours
Procedure: Assay for Inhibitory Effect on Human SGLT2 Activity 1) Construction of the Plasmid Vector Expressing Human SGLT2 Preparation of the cDNA library for PCR amplification was performed by reverse transcription of a total RNA deprived from human kidney (Ori gene) with oligo dT as the primer, using SUPERSCRIPT Preamplification System (Gibco-BRL: LIFE TECHNOLOGIES). […]
Entries whose IC50 is below 0.04 µM take 1 (yes); entries at or above 0.04 µM take 0 (no).

See these solved cases before continuing.
1. CSc1ccc(Cc2c(O[C@@H]3O[C@H](CO)[C@@H](O)[C@H](O)[C@H]3O)nn(CC3CC3)c2C)cc1: 0 (no)
2. Cc1c(Cc2ccc(C3CC3)cc2)c(O[C@@H]2O[C@H](CO)[C@@H](O)[C@H](O)[C@H]2O)nn1CC1CC1: 1 (yes)
3. CC(C)=Cc1ccc(Cc2c(O[C@@H]3O[C@H](CO)[C@@H](O)[C@H](O)[C@H]3O)n[nH]c2C)cc1: 0 (no)

Okay, now this compound:
Consider `Cc1[nH]nc(O[C@@H]2O[C@H](CO)[C@@H](O)[C@H](O)[C@H]2O)c1Cc1ccc(-c2ccc(F)cc2)cc1` . Does its IC50 lie strictly below 0.04 µM?
0 (no)

---

Recorded IC50 for the following compounds
Biological target: human SGLT2 (Homo sapiens, UniProt P31639, I433V)
Sequence (P31639 1-672 I433V): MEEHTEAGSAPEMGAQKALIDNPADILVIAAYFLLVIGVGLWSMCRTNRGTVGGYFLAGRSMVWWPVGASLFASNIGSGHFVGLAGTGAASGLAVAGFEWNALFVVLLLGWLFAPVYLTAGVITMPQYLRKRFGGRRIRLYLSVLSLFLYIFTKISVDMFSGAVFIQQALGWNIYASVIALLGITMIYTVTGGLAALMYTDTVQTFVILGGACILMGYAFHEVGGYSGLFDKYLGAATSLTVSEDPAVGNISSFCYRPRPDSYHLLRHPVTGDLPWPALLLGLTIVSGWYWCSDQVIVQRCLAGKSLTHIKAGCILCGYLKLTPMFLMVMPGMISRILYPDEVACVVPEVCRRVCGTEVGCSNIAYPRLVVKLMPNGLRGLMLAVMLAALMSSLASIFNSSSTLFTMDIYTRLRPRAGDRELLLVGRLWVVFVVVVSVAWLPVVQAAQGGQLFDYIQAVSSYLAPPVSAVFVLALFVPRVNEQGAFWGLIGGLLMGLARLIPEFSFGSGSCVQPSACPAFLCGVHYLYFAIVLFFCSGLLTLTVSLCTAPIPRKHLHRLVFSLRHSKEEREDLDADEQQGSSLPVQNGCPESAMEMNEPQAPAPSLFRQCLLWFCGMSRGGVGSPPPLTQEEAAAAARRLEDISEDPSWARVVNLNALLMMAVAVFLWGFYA
Test: Assay for inhibitory effect on human SGLT2 activity (uptake of methyl-α-D-glucopyranoside)
Conditions: inhibition of methyl-α-D-(U-14C)glucopyranoside uptake, COS-7 cells expressing transiently human SGLT2, 37° C., 2 hours
Write the answer as a number in µM, unit excluded.

1) OCCCc1ccc(Cc2c(O[C@@H]3O[C@H](CO)[C@@H](O)[C@H](O)[C@H]3O)n[nH]c2C(F)(F)F)cc1: 0.057
2) Cc1[nH]nc(O[C@@H]2O[C@H](CO)[C@@H](O)[C@H](O)[C@H]2O)c1Cc1ccc(OC2CCC2)cc1: 0.21
3) CCc1ccc(Cc2c(O[C@@H]3O[C@H](CO)[C@@H](O)[C@H](O)[C@H]3O)nn(CCCO)c2C)cc1: 0.047
4) Cc1[nH]nc(O[C@@H]2O[C@H](CO)[C@@H](O)[C@H](O)[C@H]2O)c1Cc1ccc(C=C2CC2)cc1: 0.015
5) Cc1[nH]nc(O[C@@H]2O[C@H](CO)[C@@H](O)[C@H](O)[C@H]2O)c1Cc1ccc(-c2nccs2)cc1: 0.046

Moving on to the next compound.
// query IC50 value for entry `Cc1[nH]nc(O[C@@H]2O[C@H](CO)[C@@H](O)[C@H](O)[C@H]2O)c1Cc1ccc(C2CC2)cc1`
0.018

Measured values drawn from patent US7189702B2 for this set.
